# Target or system: Galectin-8 (Homo sapiens, UniProt O00214)
# Sequence (O00214 whole entry): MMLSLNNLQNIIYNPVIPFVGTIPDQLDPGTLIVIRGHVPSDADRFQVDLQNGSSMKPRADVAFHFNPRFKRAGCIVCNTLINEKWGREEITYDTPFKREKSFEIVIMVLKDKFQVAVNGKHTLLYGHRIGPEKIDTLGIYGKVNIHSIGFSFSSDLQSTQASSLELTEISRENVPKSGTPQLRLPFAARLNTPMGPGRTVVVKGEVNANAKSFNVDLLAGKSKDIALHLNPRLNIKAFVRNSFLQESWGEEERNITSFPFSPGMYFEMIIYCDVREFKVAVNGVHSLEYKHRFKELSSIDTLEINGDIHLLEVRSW
# Method: Binding affinity at recombinant human C-terminal Galectin 8 expressed in Escherichia coli BL21 incubated for 5 mins by fluorescence anisotropy assay
# Condition: read-out: Kd
Reported property: pKd
Scale: pKd equals -log10([C]), with [C] in mol/L.

compound_structure_string=Cc1ccc(N[C@@H]2[C@@H](O)[C@@H](Sc3ccc(Cl)c(Cl)c3)O[C@H](CO)[C@@H]2O)cc1C target_or_system="Galectin-8 (Homo sapiens, UniProt O00214)" result_number=3.85
compound_structure_string=OC[C@H]1O[C@H](Sc2ccc(Cl)c(Cl)c2)[C@H](O)[C@@H](Nc2cccc(Cl)c2)[C@H]1O target_or_system="Galectin-8 (Homo sapiens, UniProt O00214)" result_number=4.02
compound_structure_string=COc1ccc(N[C@@H]2[C@@H](O)[C@@H](Sc3ccc(Cl)c(Cl)c3)O[C@H](CO)[C@@H]2O)cc1 target_or_system="Galectin-8 (Homo sapiens, UniProt O00214)" result_number=3.62

Challenge: Could you please provide reported pKd for COc1cccc(N[C@@H]2[C@@H](O)[C@@H](Sc3ccc(Cl)c(Cl)c3)O[C@H](CO)[C@@H]2O)c1 ? Thanks!
Response given: 4.01
